- Target Entity: M4 muscarinic receptor (Homo sapiens)
- Construct: expressed in transfected cells; host or cells: CHO (M4-CHO)
- Sequence (P08173 1-479): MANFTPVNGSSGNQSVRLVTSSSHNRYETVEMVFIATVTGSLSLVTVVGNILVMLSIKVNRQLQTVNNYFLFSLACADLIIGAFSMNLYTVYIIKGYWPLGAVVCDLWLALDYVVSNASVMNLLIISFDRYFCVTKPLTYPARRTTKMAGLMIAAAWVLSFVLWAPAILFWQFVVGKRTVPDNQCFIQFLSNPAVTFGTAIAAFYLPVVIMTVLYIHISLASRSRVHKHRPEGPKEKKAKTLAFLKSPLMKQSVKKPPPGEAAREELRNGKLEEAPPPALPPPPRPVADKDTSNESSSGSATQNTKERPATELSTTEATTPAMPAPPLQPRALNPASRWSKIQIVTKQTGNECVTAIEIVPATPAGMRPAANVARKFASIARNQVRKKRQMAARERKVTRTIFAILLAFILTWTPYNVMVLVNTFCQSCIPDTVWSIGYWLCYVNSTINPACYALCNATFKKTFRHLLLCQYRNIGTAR
- Measurement Protocol: Functional mobilization of intracellular calcium (FLIPR), M4-CHO cells
- Assay type: cell-based
- Reported Conditions: 100% efficacy is the maximum response obtained using Carbachol as a control
- Protocol: Functional Mobilization of Intracellular Calcium to Determine Muscarinic Receptor Activity: […] Compounds are prepared at a 2× fold concentration in a 96-well plate (round bottom, Costar Corning cat# 3656), by reconstituting the pre-spotted compounds in bath 1 containing 1 mM probenecid. […] In both assay modes, the fluorescence is recorded for 60 sec (excitation wavelength is […] and emission wavelength 540 nm) using the FLIPR 3 instrument. […]
Endpoint Label: Emax

Solved cases below.
>>> print(df.to_string())
                                   compound      result
0  CC(=O)N1Cc2ccccc2C2(CCN(C3CC4CCC(C3)N4C(=O)O[C@@H]3CCOC3)CC2)C1 (some centres unmarked)  25 to 100%
1  O=C1c2ccccc2C2(CCN(C3CCCCCC3)CC2)N1Cc1ccccc1       < 25%

Hi, could you look up Emax for each item in my list?
1. CCOC(=O)N1CCC(N2CCC3(CC2)CN(C(=O)c2ccccn2)Cc2ccccc23)CC1
2. CCOC(=O)N1C2CCC1CC(N1CCC3(CC1)CN(C(=O)c1snnc1C(C)C)Cc1ccccc13)C2 (centres unmarked)
3. O=C1NC2(CCN(CCC3CCSCC3)CC2)c2ccccc21
4. CCOC(=O)N1C2CCC1CC(N1CCC3(CC1)CN(c1cccc(OC)c1)Cc1ccccc13)C2 (centres unmarked)

Result block:
25 to 100%
25 to 100%
< 25%
25 to 100%

Hi, could you look up Emax for each item in my list?
1. CC(=O)N1Cc2ccccc2C2(CCN(C3CCCCC3)CC2)C1
2. COc1ccc(CN2CCC3(CC2)CN(C(C)=O)Cc2ccccc23)cc1F

Result block:
["25 to 100%", "< 25%"]
